Biological target: human ABHD6 (Homo sapiens, UniProt Q9BV23)
Construct: expressed in transfected cells; host or cells: HEK293T (transient transfection; membrane fraction)
Sequence (Q9BV23 whole entry): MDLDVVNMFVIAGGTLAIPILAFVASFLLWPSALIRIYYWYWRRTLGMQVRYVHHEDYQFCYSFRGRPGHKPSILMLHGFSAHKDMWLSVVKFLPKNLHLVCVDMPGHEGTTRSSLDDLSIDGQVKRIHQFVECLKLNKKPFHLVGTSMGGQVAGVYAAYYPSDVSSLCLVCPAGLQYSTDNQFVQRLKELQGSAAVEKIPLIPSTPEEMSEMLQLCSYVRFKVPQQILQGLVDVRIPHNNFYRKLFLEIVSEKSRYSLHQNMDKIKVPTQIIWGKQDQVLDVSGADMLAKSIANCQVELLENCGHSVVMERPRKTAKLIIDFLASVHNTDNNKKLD
Experiment: ABHD6 activity assay (AA-HNA fluorogenic substrate)
Format: biochemical
Settings: 100 µM, AA-HNA substrate assay, Supplementary Table 2; read-out: ABHD6 Inhibition (%)
Examples of molecules with documented activity at 100 µM follow.
I only need the number, in %, no unit after it.

{"molecule": "CCn1cc(C(=O)O)c(=O)c2ccc(C)nc21 [compound 54, Nalidixic acid]", "recordedNumber": 100}
{"molecule": "COc1ccc(-c2coc3cc(O)ccc3c2=O)cc1 [compound 31, Formononetin]", "recordedNumber": 94.1}
{"molecule": "C=CCc1ccc(O)c(-c2ccc(O)c(CC=C)c2)c1 [compound 39, Honokiol]", "recordedNumber": 83.9}
{"molecule": "c1coc(CNc2ncnc3[nH]cnc23)c1 [compound 44, Kinetin]", "recordedNumber": 98.5}

Next:
Look at this molecule and give its reported activity at 100 µM. O=C(O)CCCc1c[nH]c2ccccc12 [compound 4, 3-Indolebutyric acid]
97.2

###

Quick reference for activity at 100 µM among some compounds
Target: human ABHD6 (Homo sapiens)
Construct: expressed in transfected cells; host or cells: HEK293T (transient transfection; membrane fraction)
Test: ABHD6 activity assay (AA-HNA fluorogenic substrate)
Assay type: biochemical
Details: 100 µM, AA-HNA substrate assay, Supplementary Table 2; read-out: ABHD6 Inhibition (%)
Numbers only here, please. The scale is %.

The cases that follow already have their activity at 100 µM on record.
{"compound": "COc1ccc([C@@H]2CC(=O)c3c(O)cc(O)cc3O2)cc1O", "activity at 100 µM, %": 104}
{"compound": "N#C[C@H](O[C@@H]1O[C@H](CO[C@@H]2O[C@H](CO)[C@@H](O)[C@H](O)[C@H]2O)[C@@H](O)[C@H](O)[C@H]1O)c1ccccc1", "activity at 100 µM, %": 90.2}
{"compound": "O=c1cc(-c2ccccc2)oc2cc(O)c(O)c(O)c12", "activity at 100 µM, %": 131}
{"compound": "COc1ccc(CCC(=O)c2c(O)cc(O[C@@H]3O[C@H](CO)[C@@H](O)[C@H](O)[C@H]3O[C@@H]3O[C@@H](C)[C@H](O)[C@@H](O)[C@H]3O)cc2O)cc1O [compound 56, Neohesperidin dihydrochalcone]", "activity at 100 µM, %": 105}
{"compound": "C=CCc1ccc(O)c(-c2cc(CC=C)ccc2O)c1", "activity at 100 µM, %": 101}
{"compound": "Cc1cc(O)c2c(c1)C(=O)c1cc(O)cc(O)c1C2=O", "activity at 100 µM, %": 87.9}
{"compound": "CC1(C)O[C@H]2CC(=O)OC[C@]23[C@H]2CC[C@@]4(C)[C@H](c5ccoc5)OC(=O)[C@H]5O[C@]54[C@]2(C)C(=O)C[C@@H]13", "activity at 100 µM, %": 103}
{"compound": "CN(C)Cc1c[nH]c2ccccc12", "activity at 100 µM, %": 99}

Looking for the measured activity at 100 µM of `O=c1c(-c2ccc(O)cc2)coc2c([C@@H]3O[C@H](CO)[C@@H](O)[C@H](O)[C@H]3O)c(O)ccc12` , can you help?
119

Entry under review: C=C1CC[C@@H]2[C@](C)(CO)[C@H](O)CC[C@@]2(C)[C@@H]1C/C=C1/C(=O)OC[C@H]1O [compound 8, Andrographolide] . Reported activity at 100 µM?
81.8

Which activity at 100 µM value is on record for `O=[N+]([O-])c1ncc[nH]1` ?
112
